experiment: Phototoxicity against human NCTC-2544 cells exposed to irradiation with 3.75 J/cm'2 UVA light prior to 72 hrs drug exposure by MTT assay; format: cell-based; conditions: NCTC-2544, light or radiation study
Measured Quantity: IC50

Take a look at these entries with their results.
[
  {
    "Chemical Structure": "CCOC(=O)c1cc2ccc3c(C(=O)OCC)n(C)c(C)c3c2oc1=O",
    "IC50": "> 20 µM"
  },
  {
    "Chemical Structure": "Cn1cc2c(c1)-c1oc(=O)ccc1CC2",
    "IC50": "> 20 µM"
  },
  {
    "Chemical Structure": "CCOC(=O)c1cc2c(oc1=O)-c1c(c(C(=O)OCC)n(C)c1C)CC2",
    "IC50": "> 20 µM"
  },
  {
    "Chemical Structure": "CCOC(=O)c1cc2c(oc1=O)-c1c(c(C(=O)OCC)n(Cc3ccc(OC)cc3)c1C)CC2",
    "IC50": "> 20 µM"
  }
]

Now for another entry.
Q: Output IC50 of CCOC(=O)c1cc2c(oc1=O)-c1c(c(C(=O)OCC)n(Cc3ccccc3)c1C)CC2
Result: 10.9 µM
